Some molecules, each annotated with its measured zone of inhibition at 500 µg/mL.
Tested on: Pseudomonas aeruginosa
Test: Antibacterial activity against Pseudomonas aeruginosa ATCC 27853 at 500 ug/mL after 24 hrs by well plate method
Type: functional
Conditions: ATCC 27853, 24 h, read-out: DIZ

Reference set, count: 6
COc1cc(C2CC(=NOC(=O)c3ccc(Br)cc3)CC(c3ccc(O)c(OC)c3)N2C)ccc1O (configuration not stated) : 7 mm
COc1cc(C2CC(=NOC(=O)c3cc(OC)c(OC)c(OC)c3)CC(c3ccc(O)c(OC)c3)N2C)ccc1O (configuration not stated) : 3 mm
COc1cc(C2CC(=NOC(=O)c3cc(O)cc(O)c3)CC(c3ccc(O)c(OC)c3)N2C)ccc1O (configuration not stated) : 4 mm
COc1ccc(C(=O)ON=C2CC(c3ccc(O)c(OC)c3)N(C)C(c3ccc(O)c(OC)c3)C2)cc1 (configuration not stated) : 3 mm
COc1cc(C2CC(=NOC(=O)c3ccc([N+](=O)[O-])cc3)CC(c3ccc(O)c(OC)c3)N2C)ccc1O (configuration not stated) : 5 mm
COc1cc(C2CC(=NOC(=O)c3ccccc3)CC(c3ccc(O)c(OC)c3)N2C)ccc1O (configuration not stated) : 1 mm

Okay, next one:
Incoming: Fill in: zone of inhibition at 500 µg/mL of CN[C@@H]1[C@H](O[C@H]2[C@H](O[C@H]3[C@H](O)[C@@H](O)[C@H](N=C(N)N)[C@@H](O)[C@@H]3N=C(N)N)O[C@@H](C)[C@]2(O)C=O)O[C@@H](CO)[C@H](O)[C@H]1O [STREPTOMYCIN] is ___
Outgoing: 13 mm
